B1: CD207 (parent)
chain: MTVEKEAPDAHFTVDKQNISLWPR

Variants of: B1
Test: protein stability index of a GFP-peptide fusion (GPS, HEK-293T) (PSI 1-6); higher = more stable;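 also: lentivirally expressed fusions sorted by FACS into six bins by GFP to DsRed ratio, PSI derived from sequencing read proportions per bin multiplied by bin number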
Conditions: c terminus: a fixed tail appended
measured-quantity: protein stability index

[[record]]
mut = "I19A"
measured_number = 4.25

[[record]]
mut = "K5I"
measured_number = 1.95

[[record]]
mut = "N18R"
measured_number = 3.14

[[record]]
mut = "W22G"
measured_number = 4.35

[[record]]
mut = "F12M"
measured_number = 4.14

[[record]]
mut = "T13W"
measured_number = 2.54

[[record]]
mut = "P23G"
measured_number = 3

[[record]]
mut = "A10N"
measured_number = 3.23

[[record]]
mut = "W22T"
measured_number = 4.34

[[record]]
mut = "T2G"
measured_number = 3.68

[[record]]
mut = "M1S"
measured_number = 3.57

[[record]]
mut = "M1C"
measured_number = 3.38

[[record]]
mut = "P8W"
measured_number = 1.93

[[record]]
mut = "K16S"
measured_number = 3.79

[[record]]
mut = "V3N"
measured_number = 3.93

[[record]]
mut = "A7M"
measured_number = 2.61

[[record]]
mut = "P8T"
measured_number = 3.17

[[record]]
mut = "M1Q"
measured_number = 3.8

[[record]]
mut = "R24Y"
measured_number = 2.83

[[record]]
mut = "M1L"
measured_number = 3.07

[[record]]
mut = "V3L"
measured_number = 3.44

[[record]]
mut = "K16M"
measured_number = 2.83

[[record]]
mut = "F12R"
measured_number = 4.04

[[record]]
mut = "P8H"
measured_number = 4.79

[[record]]
mut = "H11C"
measured_number = 3.01

[[record]]
mut = "L21N"
measured_number = 3.43

[[record]]
mut = "W22R"
measured_number = 4.1

[[record]]
mut = "T2S"
measured_number = 3.57

[[record]]
mut = "A10S"
measured_number = 3.5

[[record]]
mut = "T13C"
measured_number = 3.2

[[record]]
mut = "E4H"
measured_number = 3

[[record]]
mut = "R24I"
measured_number = 2.9

[[record]]
mut = "W22L"
measured_number = 4.42

[[record]]
mut = "D15F"
measured_number = 2.06

[[record]]
mut = "T13Y"
measured_number = 3.59

[[record]]
mut = "P8M"
measured_number = 3.17

[[record]]
mut = "W22Q"
measured_number = 4.29

[[record]]
mut = "L21K"
measured_number = 3.72

[[record]]
mut = "K5T"
measured_number = 2.89

[[record]]
mut = "V14A"
measured_number = 3.45

[[record]]
mut = "I19M"
measured_number = 3.67

[[record]]
mut = "W22S"
measured_number = 4.69

[[record]]
mut = "E6G"
measured_number = 3.27

[[record]]
mut = "P23L"
measured_number = 2.62

[[record]]
mut = "S20F"
measured_number = 3.04

[[record]]
mut = "P23D"
measured_number = 4.51

[[record]]
mut = "A7D"
measured_number = 3.79

[[record]]
mut = "M1E"
measured_number = 3.36

[[record]]
mut = "Q17I"
measured_number = 2.48

[[record]]
mut = "F12P"
measured_number = 4.66

[[record]]
mut = "E4T"
measured_number = 2.77

[[record]]
mut = "F12D"
measured_number = 4.92

[[record]]
mut = "M1R"
measured_number = 3.98

[[record]]
mut = "T2Q"
measured_number = 3.54

[[record]]
mut = "Q17Y"
measured_number = 1.94

[[record]]
mut = "A10M"
measured_number = 2.31

[[record]]
mut = "R24V"
measured_number = 3.07

[[record]]
mut = "F12H"
measured_number = 4.02

[[record]]
mut = "R24G"
measured_number = 3.72

[[record]]
mut = "P8G"
measured_number = 3.02


The reported numbers originate from the supplement of paper PMC10567573.
